// provenance: ChEMBL document CHEMBL6127035

ASSAY TEXT: Acute toxicity in BALB/c nu/nu mouse assessed as survival rate at 90 mg/kg, ip administered for 7 days relative to control
Type: organism-based
MEASUREMENT SETUP: in vivo, time 7 day
TEST READOUT: survival at 168 h (%)
Field: numeric (%). Do not append units.

Task item: Look up survival at 168 h: CN(CCO)S(=O)(=O)c1ccc(-n2ncc(Cl)c(Cl)c2=O)cc1
Reply: 100

---

ASSAY TEXT: Acute toxicity in ip dosed BALB/c nu/nu mouse assessed as lethal dose measured after 7 days
Assay type: organism-based
MEASUREMENT SETUP: in vivo, time 7 day
TEST READOUT: LD50 at 168 h

Task item: Requested field: LD50 at 168 h. Item: CN(CCO)S(=O)(=O)c1ccc(-n2ncc(Cl)c(Cl)c2=O)cc1
Reply: 105 mg/kg

---

ASSAY TEXT: Acute toxicity in BALB/c nu/nu mouse assessed as mortality rate at 30 mg/kg, ip administered for 7 days relative to control
Assay type: organism-based
MEASUREMENT SETUP: in vivo, time 7 day
TEST READOUT: mortality at 168 h (%)
Use % as the unit, but write only the number.

Task item: Sample CN(C)CCN(C)S(=O)(=O)c1ccc(-n2ncc(Cl)c(Cl)c2=O)cc1 — what was its mortality at 168 h?
Reply: 100

---

ASSAY TEXT: Acute toxicity in BALB/c nu/nu mouse assessed as survival rate at 100 mg/kg, ip administered for 7 days relative to control
Type: organism-based
MEASUREMENT SETUP: in vivo, time 7 day
TEST READOUT: survival at 168 h (%)
Supply the numeric figure in %, leaving out any unit text.

Task item: Consider the molecule shown here: CN(CCO)S(=O)(=O)c1ccc(-n2ncc(Cl)c(Cl)c2=O)cc1 What is its recorded survival at 168 h?
Reply: 80

---

For each of the compounds below, state its Kd.
STUDY SYSTEM: Far upstream element-binding protein 2 (Homo sapiens, UniProt Q92945)
Sequence (Q92945 whole entry): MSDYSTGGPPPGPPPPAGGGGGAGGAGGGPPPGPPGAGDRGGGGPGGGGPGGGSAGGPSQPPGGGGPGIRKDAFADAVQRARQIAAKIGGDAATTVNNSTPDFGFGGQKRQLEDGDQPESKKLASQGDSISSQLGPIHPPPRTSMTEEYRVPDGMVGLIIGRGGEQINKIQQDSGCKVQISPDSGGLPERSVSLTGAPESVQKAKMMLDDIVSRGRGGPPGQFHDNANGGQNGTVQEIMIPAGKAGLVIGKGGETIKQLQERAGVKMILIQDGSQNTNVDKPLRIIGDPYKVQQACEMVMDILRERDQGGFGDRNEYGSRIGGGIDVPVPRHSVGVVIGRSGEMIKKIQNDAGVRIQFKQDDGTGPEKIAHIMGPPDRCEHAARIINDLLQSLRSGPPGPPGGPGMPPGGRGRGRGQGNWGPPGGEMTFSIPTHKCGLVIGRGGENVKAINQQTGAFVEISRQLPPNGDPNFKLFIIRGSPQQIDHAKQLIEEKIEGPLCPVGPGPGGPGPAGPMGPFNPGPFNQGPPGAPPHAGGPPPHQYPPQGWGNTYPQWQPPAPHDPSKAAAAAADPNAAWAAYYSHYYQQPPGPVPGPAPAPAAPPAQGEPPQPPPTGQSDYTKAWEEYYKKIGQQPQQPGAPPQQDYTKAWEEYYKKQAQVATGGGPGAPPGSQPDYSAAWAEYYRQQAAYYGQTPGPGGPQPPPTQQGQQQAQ
ASSAY TEXT: Binding affinity to recombinant full-length KSRP (unknown origin) assessed as dissociation constant by SPR analysis
Please give a number only; it is taken to be in µM.

Task item: Suppose we examine the compound COCC(C)NS(=O)(=O)c1ccc(-n2ncc(Cl)c(Cl)c2=O)cc1 (configuration not stated) ; what Kd value has been reported?
Reply: 38.3

Task item: Please answer likewise for O=C(CCCC[C@@H]1SC[C@@H]2NC(=O)N[C@@H]21)NCCCCNS(=O)(=O)c1ccc(-n2ncc(Cl)c(Cl)c2=O)cc1
Reply: 17.7

---

ASSAY TEXT: Cytotoxicity against human L02 cells assessed as reduction in cell viability incubated for 2 days by MTT assay
Assay type: toxicity, cell-based
For each of the compounds below, state its IC50 at 2 days.
Kindly answer with a numeric value in µM, unit omitted.

Task item: Requested field: IC50 at 2 days. Item: CN(CCO)S(=O)(=O)c1ccc(-n2ncc(Cl)c(Cl)c2=O)cc1
Reply: 8.34

Task item: Same read-out for O=c1c(Cl)c(Cl)cnn1-c1ccc(S(=O)(=O)NCCCN2CCCC2)cc1 ?
Reply: 8.15

Task item: Okay, and CN(CCOS(C)(=O)=O)S(=O)(=O)c1ccc(-n2ncc(Cl)c(Cl)c2=O)cc1 ?
Reply: 4.24

Task item: And then COCCNS(=O)(=O)c1ccc(-n2ncc(Cl)c(Cl)c2=O)cc1 , what is it?
Reply: 4.07

Task item: Moving on to CC(C)C(CO)NS(=O)(=O)c1ccc(-n2ncc(Cl)c(Cl)c2=O)cc1 (configuration not stated)
Reply: 3.64

Task item: // query: CC(CO)NS(=O)(=O)c1ccc(-n2ncc(Cl)c(Cl)c2=O)cc1 (configuration not stated)
Reply: 4.66

Task item: Another compound to look at: CN(C)CCN(C)S(=O)(=O)c1ccc(-n2ncc(Cl)c(Cl)c2=O)cc1
Reply: 4.97
